experiment: Plasma paroxetine concentrations in the DDI study; type: in vivo, human (healthy subjects); details: human, plasma, oral, 20 mg
endpoint: Cmax

Problem: If you can, please state the reported Cmax value of Fc1ccc([C@@H]2CCNC[C@H]2COc2ccc3c(c2)OCO3)cc1 [Paroxetine] .
Result: 37.3 ng/mL

----------
experiment: Plasma paroxetine concentrations in the DDI study; type: in vivo, human (healthy subjects); conditions: human, plasma, oral, 20 mg
endpoint: AUC (ng·h/mL)
Answers are plain numbers, in ng·h/mL.

Problem: If you can, please state the reported AUC value of Fc1ccc([C@@H]2CCNC[C@H]2COc2ccc3c(c2)OCO3)cc1 [Paroxetine] .
Result: 647
